Data provenance is patent US20160106102A1.

Listed below: efficacy (kill in %) values for each entry.
# System: Myzus persicae
# assay_text: Myzus persicae - sachet test
# Type: in vivo
# experimental_conditions: application rate of 30 ppm in nutrient medium; 100% = all animals killed
reported_endpoint: efficacy (kill in %)

>>> print(df.to_string())
                                   compound  value_reported
0         Cc1cc(NC(=O)c2cccnc2)nn1Cc1cccnc1             100
1        Cc1cc(NC(=O)c2cccnc2)nn1C(=O)N(C)C             100
2  Cc1cc(NC(=O)c2cccnc2)nn1C=C(F)c1ccc(Cl)cn1             100
3  CC[S+]([O-])CCn1nc(NC(=O)c2cccnc2)cc1C (centres unmarked)             100
4    CCc1cc(NC(=O)c2cccnc2)nn1Cc1ccc(Cl)nc1             100
